Origin of values: patent US8975417B2

- tgt: His-CREBBP (1081-1197) bromodomain (Homo sapiens (Human), UniProt Q92793)
- Sequence (Q92793 1081-1197): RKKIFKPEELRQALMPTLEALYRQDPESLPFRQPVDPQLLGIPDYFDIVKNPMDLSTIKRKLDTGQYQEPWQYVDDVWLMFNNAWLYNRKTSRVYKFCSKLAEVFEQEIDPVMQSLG
- assay-notes: AlphaScreen in-vitro binding assay for CREBBP
- test-settings: biochemical
measured-attribute: IC50 (µM)
Field format: number, assumed µM, no unit text.

- molecule: "Cc1c2c(nn1C)C(=O)N(c1cc(Cl)c(=O)n(C)c1)C2c1ccc(Cl)cc1 (centres unmarked)"
  measured-attribute: "IC50"
  result-value: 3.5
- molecule: "Cc1cc(N2C(=O)c3nn(C4CC4)c(C)c3C2c2ccc(Cl)cc2)cn2c(C)nnc12 (centres unmarked)"
  measured-attribute: "IC50"
  result-value: 3.1
- molecule: "Cc1cc(N2C(=O)c3c(c(CO)nn3C3CC3)C2c2ccc(Cl)cc2)cn2c(C)nnc12 (centres unmarked)"
  measured-attribute: "IC50"
  result-value: 30
- molecule: "CC(=O)N1CC(n2nc(C)c3c2C(=O)N(c2cc(C)c(=O)n(C)c2)C3c2ccc(Cl)cc2)C1 (centres unmarked)"
  measured-attribute: "IC50"
  result-value: 12
- molecule: "Cc1nn(C(C)C)c2c1C(c1ccc(Cl)cc1)N(c1cc(C)c(=O)n(C)c1)C2=O (centres unmarked)"
  measured-attribute: "IC50"
  result-value: 2.5
- molecule: "COc1ncccc1-n1nc(C)c2c1C(=O)N(c1cc(C)c(=O)n(C)c1)C2c1ccc(Cl)cc1 (centres unmarked)"
  measured-attribute: "IC50"
  result-value: 5.9

The recorded IC50 with His-CREBBP (1081-1197) bromodomain (Homo sapiens (Human), UniProt Q92793) for Cc1nn(C2CC2)c2c1C(c1ccc(Cl)cc1F)N(c1cc(C)c3nnc(C)n3c1)C2=O (centres unmarked) was 32

// IC50 (His-CREBBP (1081-1197) bromodomain (Homo sapiens (Human), UniProt Q92793)) for Cc1nn(C2CC2)c2c1C(c1ccc(Cl)cc1)N(c1cc(C)c3nnc(C)n3c1)C2=O (centres unmarked) = 14.9

// assay His-CREBBP (1081-1197) bromodomain (Homo sapiens (Human), UniProt Q92793), entry Cc1nn(C2CC2)c2c1C(c1ccc(Cl)cc1)N(c1cc(C)c3nnn(C)c3c1)C2=O (centres unmarked) , IC50 value = 8.3

Value sought: IC50, system His-CREBBP (1081-1197) bromodomain (Homo sapiens (Human), UniProt Q92793), item COc1ncc(-n2nc3c(c2C)C(c2ccc(Cl)cc2)N(c2cc(Cl)c(=O)n(C)c2)C3=O)c(OC)n1 (centres unmarked) . Result: 0.6

IC50 on His-CREBBP (1081-1197) bromodomain (Homo sapiens (Human), UniProt Q92793) for COc1ncc(-n2nc(C)c3c2C(=O)N(c2cc(C)c(=O)n(C)c2)C3c2ccc(Cl)cc2)c(OC)n1 (racemic) is 5.7

Query `COCc1nn(C2CC2)c2c1[C@@H](c1ccc(Cl)cc1)N(c1cc(C)c(=O)n(C)c1)C2=O` on His-CREBBP (1081-1197) bromodomain (Homo sapiens (Human), UniProt Q92793); IC50 returned: 3.7
